These measurements were taken from patent US20160115500A1.

Molecular target: T1, GAL4 activation domain fusion (ACT) to HAB1 (UniProt Q9CAJ0 23-511, limits assumed)
T1 construct: pACT-HAB1 fusion in yeast reporter strains; also called pACT-HAB1
T1 sequence (looked up): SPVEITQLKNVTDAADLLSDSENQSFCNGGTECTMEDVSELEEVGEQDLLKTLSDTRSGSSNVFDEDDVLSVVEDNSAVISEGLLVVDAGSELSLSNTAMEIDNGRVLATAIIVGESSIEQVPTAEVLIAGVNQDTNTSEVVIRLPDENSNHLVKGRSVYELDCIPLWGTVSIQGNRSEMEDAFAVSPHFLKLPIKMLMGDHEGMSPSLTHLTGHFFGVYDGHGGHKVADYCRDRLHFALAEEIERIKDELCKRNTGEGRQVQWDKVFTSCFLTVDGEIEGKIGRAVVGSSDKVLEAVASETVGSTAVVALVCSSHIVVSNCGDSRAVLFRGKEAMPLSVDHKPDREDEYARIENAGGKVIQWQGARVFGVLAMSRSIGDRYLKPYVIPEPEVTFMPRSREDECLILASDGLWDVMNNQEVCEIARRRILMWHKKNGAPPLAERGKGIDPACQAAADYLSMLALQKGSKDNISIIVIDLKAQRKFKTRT
Assay: yeast two-hybrid, X-gal; lowest fludioxonil concentration giving signal
Measured Threshold of individual entries
Provide the reading as a plain figure in µM.

These solved cases illustrate the format of a correct answer.
PYR1^K59R,F159T (receptor, not shown: small tags and cut ends, pBD-PYR1 fusion in yeast) MPSELTPEERSELKNSIAEFHTYQLDPGSCSSLHAQRIHAPPELVWSIVRRFDKPQTYRHFIKSCSVEQNFEMRVGCTRDVIVISGLPANTSTERLDILDDERRVTGFSIIGGEHRLTNYKSVTTVHRFEKENRIWTVVLESYVVDMPEGNSEDDTRMTADTVVKLNLQKLATVAEAMARNSGDGSGSQVT ... 100
PYR1^K59R,V81Y (receptor, not shown: small tags and cut ends, pBD-PYR1 fusion in yeast) MPSELTPEERSELKNSIAEFHTYQLDPGSCSSLHAQRIHAPPELVWSIVRRFDKPQTYRHFIKSCSVEQNFEMRVGCTRDYIVISGLPANTSTERLDILDDERRVTGFSIIGGEHRLTNYKSVTTVHRFEKENRIWTVVLESYVVDMPEGNSEDDTRMFADTVVKLNLQKLATVAEAMARNSGDGSGSQVT ... 100

// next entry
Data request: Recorded Threshold of PYR1^K59R,V164K (receptor, not shown: small tags and cut ends, pBD-PYR1 fusion in yeast) MPSELTPEERSELKNSIAEFHTYQLDPGSCSSLHAQRIHAPPELVWSIVRRFDKPQTYRHFIKSCSVEQNFEMRVGCTRDVIVISGLPANTSTERLDILDDERRVTGFSIIGGEHRLTNYKSVTTVHRFEKENRIWTVVLESYVVDMPEGNSEDDTRMFADTVKKLNLQKLATVAEAMARNSGDGSGSQVT , please.
Data returned: 100
